target: Protein deacetylase HDAC6 (Homo sapiens) (UniProt Q9UBN7); assay: Inhibition of full length N-terminal GST-tagged human HDAC6 expressed in baculovirus infected Sf9 insect cells using HDAC substrate 3 after at 10 uM 30 mins by fluorescence assay relative to control
Sequence (Q9UBN7 whole entry): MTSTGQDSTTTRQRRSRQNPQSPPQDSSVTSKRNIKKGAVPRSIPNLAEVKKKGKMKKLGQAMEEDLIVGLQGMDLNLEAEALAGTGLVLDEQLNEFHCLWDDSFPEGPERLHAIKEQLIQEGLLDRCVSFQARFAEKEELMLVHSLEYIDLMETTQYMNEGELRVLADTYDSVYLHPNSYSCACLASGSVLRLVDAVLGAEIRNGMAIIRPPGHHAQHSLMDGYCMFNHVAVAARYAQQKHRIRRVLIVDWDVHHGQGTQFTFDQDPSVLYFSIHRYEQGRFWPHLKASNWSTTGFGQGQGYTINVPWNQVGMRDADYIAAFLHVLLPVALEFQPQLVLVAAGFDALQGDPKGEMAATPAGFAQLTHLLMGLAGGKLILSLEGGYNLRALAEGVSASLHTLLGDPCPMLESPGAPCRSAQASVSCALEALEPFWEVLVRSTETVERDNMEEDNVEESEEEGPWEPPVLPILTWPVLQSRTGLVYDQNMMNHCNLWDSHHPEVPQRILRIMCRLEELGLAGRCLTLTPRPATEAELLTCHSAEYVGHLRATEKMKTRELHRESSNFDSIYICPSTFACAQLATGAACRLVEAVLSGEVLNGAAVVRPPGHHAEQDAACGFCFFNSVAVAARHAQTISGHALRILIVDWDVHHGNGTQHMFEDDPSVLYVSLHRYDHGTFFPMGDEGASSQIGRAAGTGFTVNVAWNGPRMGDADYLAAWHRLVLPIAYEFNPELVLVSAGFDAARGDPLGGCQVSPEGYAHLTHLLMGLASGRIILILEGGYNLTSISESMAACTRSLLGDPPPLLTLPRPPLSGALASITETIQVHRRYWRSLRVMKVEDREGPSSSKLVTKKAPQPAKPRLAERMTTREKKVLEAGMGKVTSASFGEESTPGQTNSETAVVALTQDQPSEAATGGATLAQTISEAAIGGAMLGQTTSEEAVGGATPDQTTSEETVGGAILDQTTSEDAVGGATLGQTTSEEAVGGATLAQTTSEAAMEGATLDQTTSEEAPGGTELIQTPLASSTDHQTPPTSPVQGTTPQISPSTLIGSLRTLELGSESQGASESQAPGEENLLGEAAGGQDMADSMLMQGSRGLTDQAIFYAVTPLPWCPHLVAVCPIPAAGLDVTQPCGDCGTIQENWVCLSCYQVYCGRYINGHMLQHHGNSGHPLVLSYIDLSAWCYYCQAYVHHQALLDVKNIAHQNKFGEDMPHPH
Catalogue of inhibition readings, one per entry.

Below, each entry is followed by its recorded inhibition result.
1. CCC(=O)CC/C=C/[C@@H]1CC(=O)NCc2nc(cs2)C2=N[C@@](C)(CS2)C(=O)N[C@@H](C(C)C)C(=O)O1 < 15%
2. CCC/C=C/[C@@H]1CC(=O)NCc2nc(cs2)C2=N[C@@](C)(CS2)C(=O)N[C@@H](C(C)C)C(=O)O1 < 15%

# context switch: different molecule, same inhibition
Q: May I ask what inhibition has been recorded for CC(C)[C@@H]1NC(=O)[C@]2(C)CSC(=N2)c2csc(n2)CNC(=O)C[C@@H](/C=C/CCN)OC1=O ?
Result: < 15%
